These data points were gathered from ChEMBL document CHEMBL4038284.

- System: Candida albicans
- EXPERIMENT SUMMARY: Growth inhibition of Candida albicans ATCC 10231 at 7.8 ug/ml incubated for 48 hrs under dark condition by broth microdilution method relative to control
- Assay type: functional
- MEASUREMENT PARAMETERS: ATCC 10231, 48 h, read-out: GI
Catalogue of molecules with associated inhibition of growth at 7.8 µg/mL
Write the value in % as a bare number.

Example results:
[[record]]
molecule = "COc1ccc(C(=O)/C=C/c2cccc(Nc3ccnc4cc(Cl)ccc34)c2)cc1"
quantitative_result = 12.5

[[record]]
molecule = "Clc1ccc2c(Nc3cccc(C4CC(c5ccccc5)=NN4c4ccccc4)c3)ccnc2c1 (stereo not drawn)"
quantitative_result = 5.03

[[record]]
molecule = "Cc1ccc(C2=NN(c3ccc(Cl)cc3)C(c3cccc(Nc4ccnc5cc(Cl)ccc45)c3)C2)cc1 (stereo not drawn)"
quantitative_result = 5.67

[[record]]
molecule = "CC(=O)N1N=C(c2ccc(Br)cc2)CC1c1cccc(Nc2ccnc3cc(Cl)ccc23)c1 (stereo not drawn)"
quantitative_result = 13.9

[[record]]
molecule = "Clc1ccc(C2=NN(c3cc(Cl)cc(Cl)c3)C(c3cccc(Nc4ccnc5cc(Cl)ccc45)c3)C2)cc1 (stereo not drawn)"
quantitative_result = 6.01


Entry Clc1cc(Cl)cc(N2N=C(c3ccc(Br)cc3)CC2c2cccc(Nc3ccnc4cc(Cl)ccc34)c2)c1 (stereo not drawn) — recorded inhibition of growth at 7.8 µg/mL = 1.43

// sample O=CN1N=C(c2ccccc2)CC1c1cccc(Nc2ccnc3cc(Cl)ccc23)c1 (stereo not drawn) , its inhibition of growth at 7.8 µg/mL was 4.3

---

- System: Candida albicans
- EXPERIMENT SUMMARY: Growth inhibition of Candida albicans ATCC 10231 at 7.8 ug/ml incubated for 48 hrs under dark condition by broth microdilution method relative to control
- Assay type: functional
- MEASUREMENT PARAMETERS: ATCC 10231, 48 h, read-out: GI
ENDPOINT: inhibition of growth at 7.8 µg/mL (%)
Give just the number in %; leave the unit off.

Example results:
[[record]]
compound = "Cc1ccc(C2=NN(c3cc(Cl)cc(Cl)c3)C(c3cccc(Nc4ccnc5cc(Cl)ccc45)c3)C2)cc1 (centres undefined)"
endpoint = "inhibition of growth at 7.8 µg/mL"
quantitative_result = 0

[[record]]
compound = "O=CN1N=C(c2ccc(Br)cc2)CC1c1cccc(Nc2ccnc3cc(Cl)ccc23)c1 (centres undefined)"
endpoint = "inhibition of growth at 7.8 µg/mL"
quantitative_result = 8.36

[[record]]
compound = "CC(=O)N1N=C(c2ccc(C)cc2)CC1c1cccc(Nc2ccnc3cc(Cl)ccc23)c1 (centres undefined)"
endpoint = "inhibition of growth at 7.8 µg/mL"
quantitative_result = 20.6

[[record]]
compound = "Clc1ccc(N2N=C(c3ccc(Br)cc3)CC2c2cccc(Nc3ccnc4cc(Cl)ccc34)c2)cc1 (centres undefined)"
endpoint = "inhibition of growth at 7.8 µg/mL"
quantitative_result = 6.28


Proceeding to the next compound to report its inhibition of growth at 7.8 µg/mL.
Just so you know, measured inhibition of growth at 7.8 µg/mL for CC(=O)N1N=C(c2ccccc2)CC1c1cccc(Nc2ccnc3cc(Cl)ccc23)c1 (centres undefined) came out at 10.5

---

- Test system: MCF7
- EXPERIMENT SUMMARY: Growth inhibition of human MCF7 cells incubated for 48 hrs by sulforhodamine B assay
- Type: functional
- MEASUREMENT PARAMETERS: MCF7, 48 h, read-out: LC50 (the source's name)
Reported CC50 by item:
Note: unit µM is implicit; provide only the numeric part.

[[record]]
molecule = "COc1cccc2c1C(=O)c1c(O)c3c(c(O)c1C2=O)C[C@@](O)(C(=O)CO)C[C@@H]3O[C@H]1C[C@H](N)[C@H](O)[C@H](C)O1 [DOXORUBICIN]"
result_units = "µM"
quantitative_result = 64.1


Entry under test: `COc1cc(C(=O)/C=C/c2cccc(Nc3ccnc4cc(Cl)ccc34)c2)cc(OC)c1OC` . Its CC50 was 5.24
